target: UniProtKB P00760; assay: Steady-state kinetics of inhibitors of trypsin; assay type: biochemical; settings: read-out: Ki2 trypsin; 50 nM trypsin, BOC-GRR-AMC fluorogenic substrate
Sequence (P00760 24-246): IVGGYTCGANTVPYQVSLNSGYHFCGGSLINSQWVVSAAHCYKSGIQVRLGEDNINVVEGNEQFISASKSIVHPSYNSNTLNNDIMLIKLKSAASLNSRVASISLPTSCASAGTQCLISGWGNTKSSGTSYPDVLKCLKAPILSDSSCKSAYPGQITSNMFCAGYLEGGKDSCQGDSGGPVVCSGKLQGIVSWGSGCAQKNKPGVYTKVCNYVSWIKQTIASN
Measured Parameter: pKi
Expect pKi as a plain number equal to -log10 of the molar concentration.

QUERY: Field request: pKi | item: "O=C1c2c(O)ccc([N+](=O)[O-])c2C(=O)c2c([N+](=O)[O-])ccc(O)c21"
RESULT: 4.89

Source of measurements: paper PMC3026091
